Tested on: cold allodynia in rats
Test: Cold allodynia in vivo assay (chronic constriction injury), acute studies
Set-up: species or system rat
Settings: Rattus norvegicus, sc; cold allodynia, subcutaneous, acute, 1 hr; read-out: ED50 1 hr
List of ED50 values.

// known answers, use as guide
Exercise: Quote ED50 reported for CCN[C@@H](C)COc1c(C)cccc1C [Formula I (S)-] please.
Key: 12.8 mg/kg

Exercise: Quote ED50 reported for CCN[C@H](C)COc1c(C)cccc1C [Formula I (R)-] please.
Key: 37 mg/kg

Exercise: Quote ED50 reported for CN[C@H](C)COc1c(C)cccc1C [Formula III (R)-, reference compound] please.
Key: 26.1 mg/kg

Others:
Exercise: Quote ED50 reported for CCNC(C)COc1c(C)cccc1C (racemic) [Formula I racemate] please.
Key: 15.7 mg/kg

Exercise: Quote ED50 reported for Cc1cccc(C)c1OCC(C)N (racemic) [Formula II racemate, reference compound] please.
Key: 29.8 mg/kg

Exercise: Quote ED50 reported for CCCN[C@H](C)COc1c(C)cccc1C [Formula IV (R)-, reference compound] please.
Key: 28.4 mg/kg

* * *

Assay: Adverse effects / gross behavior on dosing
Assay type: in vivo, rat
Conditions: subcutaneous, cold allodynia acute study
READOUT: doses with adverse side effects / behavioral problems

Exercise: Quote doses with adverse side effects / behavioral problems reported for CCCN[C@H](C)COc1c(C)cccc1C [Formula IV (R)-, reference compound] please.
Key: higher than 60 mg/kg

Exercise: Quote doses with adverse side effects / behavioral problems reported for CCN[C@H](C)COc1c(C)cccc1C [Formula I (R)-] please.
Key: ≥ 300 mg/kg

Exercise: Quote doses with adverse side effects / behavioral problems reported for CCN[C@@H](C)COc1c(C)cccc1C [Formula I (S)-] please.
Key: higher than 60 mg/kg

Exercise: Quote doses with adverse side effects / behavioral problems reported for CCNC(C)COc1c(C)cccc1C (racemic) [Formula I racemate] please.
Key: higher than 60 mg/kg

* * *

Test system: cold allodynia in rats
Assay: Cold allodynia in vivo assay (chronic constriction injury), acute studies
Parameters: species or system rat
Details: cold allodynia, subcutaneous, acute, 3 hr
List of Emax 3 hr values.
Kindly answer with a numeric value in %, unit omitted.

Exercise: Quote Emax 3 hr reported for Cc1cccc(C)c1OCC(C)N (racemic) [Formula II racemate, reference compound] please.
Key: 80

Exercise: Quote Emax 3 hr reported for CCN[C@@H](C)COc1c(C)cccc1C [Formula I (S)-] please.
Key: 58

Exercise: Quote Emax 3 hr reported for CCN[C@H](C)COc1c(C)cccc1C [Formula I (R)-] please.
Key: 87

Exercise: Quote Emax 3 hr reported for CN[C@H](C)COc1c(C)cccc1C [Formula III (R)-, reference compound] please.
Key: 74

Others:
Exercise: Quote Emax 3 hr reported for CCCN[C@H](C)COc1c(C)cccc1C [Formula IV (R)-, reference compound] please.
Key: 74
